- assayOverview: Ex vivo biodistribution in tissues by gamma counting
- Set-up: species or system rat
- conditionParameters: Lewis, rat, in vivo, total radioactivity, Biodistribution: Connective tissue
readoutKind: tissue uptake at 1.5 h (%ID/g)

>>> numericresult("N=C(N)NCCC[C@@H]1NC(=O)[C@H](CCCCNC(=O)CCC(C(=O)O)N2CCN(CC(=O)O)CCN(CC(=O)O)CC2)NC(=O)[C@@H](Cc2ccc(O)cc2)NC(=O)[C@H](CC(=O)O)NC(=O)CNC1=O (stereo partly shown) [^68Ga-NODAGA-RGD, ^68Ga-NODAGA-cyclo(RGDyK), metal not drawn]")
0.11

Source: paper PMC3658936
